From: patent US4016166A

Please provide measured inhibition in vivo at 10 mg/kg for the entries that follow.
tested on: carrageenin edema; experiment: Anti-inflammatory effect (carrageenin edema, hind paw, rat); assay type: in vivo, Wistar-strain male rats; conditions: 10 mg/kg, oral, 3 hours after carrageenin, read-out: anti-inflammatory effect (inhibition percentage of carrageenin edema)

// query So what's the measured inhibition in vivo at 10 mg/kg for this one? CCn1c(=O)c2ccccc2n(-c2cccc([N+](=O)[O-])c2)c1=O [Compound 3]
// result > 61%

// query So what's the measured inhibition in vivo at 10 mg/kg for this one? O=c1c2ccccc2n(-c2cccc([N+](=O)[O-])c2)c(=O)n1CC(F)(F)F [Compound 12]
// result 16 to 30%

// query So what's the measured inhibition in vivo at 10 mg/kg for this one? Cn1c(=O)c2ccccc2n(-c2cccc([N+](=O)[O-])c2)c1=O [Compound 2]
// result 31 to 45%

// query So what's the measured inhibition in vivo at 10 mg/kg for this one? O=c1c2ccccc2n(-c2cccc([N+](=O)[O-])c2)c(=O)n1CCF [Compound 10]
// result > 61%

// query So what's the measured inhibition in vivo at 10 mg/kg for this one? C=CCn1c(=O)c2ccccc2n(-c2cccc([N+](=O)[O-])c2)c1=O [Compound 6]
// result 16 to 30%

// query So what's the measured inhibition in vivo at 10 mg/kg for this one? O=c1c2ccccc2n(-c2cccc([N+](=O)[O-])c2)c(=O)n1CC1CC1
// result 31 to 45%

// query So what's the measured inhibition in vivo at 10 mg/kg for this one? CCn1c(=O)c2ccccc2n(-c2cccc(C(F)(F)F)c2)c1=O [R1=drawing 18, R2=C2 H5, reference compound]
// result < 15%

// query So what's the measured inhibition in vivo at 10 mg/kg for this one? C#CCn1c(=O)c2ccccc2n(-c2cccc([N+](=O)[O-])c2)c1=O
// result < 15%

// query So what's the measured inhibition in vivo at 10 mg/kg for this one? CC(C)n1c(=O)c2ccccc2n(-c2cccc([N+](=O)[O-])c2)c1=O
// result 16 to 30%

// query So what's the measured inhibition in vivo at 10 mg/kg for this one? O=c1c2ccccc2n(-c2cccc(C(F)(F)F)c2)c(=O)n1CCO [R1=drawing 18, R2=CH2 CH2 OH, reference compound]
// result < 15%

// query So what's the measured inhibition in vivo at 10 mg/kg for this one? CCn1c(=O)c2ccccc2n(-c2cccc([N+](=O)[O-])c2)c1=S [Compound 24]
// result 31 to 45%

// query So what's the measured inhibition in vivo at 10 mg/kg for this one? Cn1c(=O)c2ccccc2n(-c2cccc([N+](=O)[O-])c2)c1=S [Compound 23]
// result < 15%

// query So what's the measured inhibition in vivo at 10 mg/kg for this one? CCCn1c(=O)c2ccccc2n(-c2cccc([N+](=O)[O-])c2)c1=O [Compound 4]
// result < 15%

---

system: dd-strain male mice; format: in vivo; conditions: i.p., mouse, 72 hours
value.type: acute toxicity (lethal dose)

// query Query acute toxicity (lethal dose) on dd-strain male mice for CCOCCn1c(=O)c2ccccc2n(-c2cccc([N+](=O)[O-])c2)c1=O
// result > 1000 mg/kg

// query Query acute toxicity (lethal dose) on dd-strain male mice for O=c1c2ccccc2n(-c2cccc([N+](=O)[O-])c2)c(=O)n1CC(F)(F)F
// result > 1000 mg/kg

// query Query acute toxicity (lethal dose) on dd-strain male mice for CC(C)n1c(=O)c2ccccc2n(-c2cccc([N+](=O)[O-])c2)c1=O
// result > 1000 mg/kg

// query Query acute toxicity (lethal dose) on dd-strain male mice for CCCn1c(=O)c2ccccc2n(-c2cccc([N+](=O)[O-])c2)c1=O
// result 1000 mg/kg

// query Query acute toxicity (lethal dose) on dd-strain male mice for O=c1c2ccccc2n(-c2cccc([N+](=O)[O-])c2)c(=O)n1CCF
// result > 1000 mg/kg

// query Query acute toxicity (lethal dose) on dd-strain male mice for CCn1c(=O)c2ccccc2n(-c2cccc([N+](=O)[O-])c2)c1=O
// result > 1000 mg/kg

// query Query acute toxicity (lethal dose) on dd-strain male mice for CCn1c(=O)c2ccccc2n(-c2cccc([N+](=O)[O-])c2)c1=S
// result > 1000 mg/kg

// query Query acute toxicity (lethal dose) on dd-strain male mice for C=CCn1c(=O)c2ccccc2n(-c2cccc([N+](=O)[O-])c2)c1=O
// result > 1000 mg/kg

// query Query acute toxicity (lethal dose) on dd-strain male mice for O=c1c2ccccc2n(-c2cccc([N+](=O)[O-])c2)c(=O)n1CC1CC1
// result 1000 mg/kg
